System: SK-N-FI
EXPERIMENTAL_PROTOCOL: cells
Format: cell-based, human
STUDY_CONDITIONS: Table 1C; SK-N-FI vs SK-N-As
Marks after values point to notes of the source that are not given here. Starred links: 1 amine or outer side, 2 acyl side, 3 side chain; linkers in the order of their positions; H or OH if unused. Positions of bridges follow the written chain, without caps; N, C: chain ends. Non-standard residues stand in square brackets, D forms with d. Residues, ends and D or L forms follow the SMILES beside them. Chains are numbered I, II in the order given. Actinocin(9to1) = Cc1c2oc3c(C)ccc(C(=O)[*:1])c3nc-2c(C(=O)[*:2])c(N)c1=O; NMeV = CN[C@H](C(=O)O)C(C)C; Sar = CNCC(=O)O
EXPERIMENTAL_ENDPOINT: folds of resistance (IC50 ratio vs parent cell line)

1) C/C(=C\c1csc(C)n1)[C@@H]1C[C@@H]2O[C@]2(C)CCC[C@H](C)[C@H](O)[C@@H](C)C(=O)C(C)(C)[C@@H](O)CC(=O)O1: (25x)
2) Cc1c2oc3c(C)ccc(C(=O)N[C@@H]4C(=O)N[C@H](C(C)C)C(=O)N5CCC[C@H]5C(=O)N(C)CC(=O)N(C)[C@@H](C(C)C)C(=O)O[C@@H]4C)c3nc-2c(C(=O)N[C@@H]2C(=O)N[C@H](C(C)C)C(=O)N3CCC[C@H]3C(=O)N(C)CC(=O)N(C)[C@@H](C(C)C)C(=O)O[C@@H]2C)c(N)c1=O [Actinomycin D, actinomycin D] (I: T[dV]P[Sar][NMeV] / II: T[dV]P[Sar][NMeV]; ester I:1-I:C, II:1-II:C; linker I:N-II:N via Actinocin(9to1)): (14x)
